Values were extracted from ChEMBL document CHEMBL1961873.

# Tested on: Mast/stem cell growth factor receptor Kit (Homo sapiens), P10721 [D816V]
# Sequence (P10721 whole entry D816V): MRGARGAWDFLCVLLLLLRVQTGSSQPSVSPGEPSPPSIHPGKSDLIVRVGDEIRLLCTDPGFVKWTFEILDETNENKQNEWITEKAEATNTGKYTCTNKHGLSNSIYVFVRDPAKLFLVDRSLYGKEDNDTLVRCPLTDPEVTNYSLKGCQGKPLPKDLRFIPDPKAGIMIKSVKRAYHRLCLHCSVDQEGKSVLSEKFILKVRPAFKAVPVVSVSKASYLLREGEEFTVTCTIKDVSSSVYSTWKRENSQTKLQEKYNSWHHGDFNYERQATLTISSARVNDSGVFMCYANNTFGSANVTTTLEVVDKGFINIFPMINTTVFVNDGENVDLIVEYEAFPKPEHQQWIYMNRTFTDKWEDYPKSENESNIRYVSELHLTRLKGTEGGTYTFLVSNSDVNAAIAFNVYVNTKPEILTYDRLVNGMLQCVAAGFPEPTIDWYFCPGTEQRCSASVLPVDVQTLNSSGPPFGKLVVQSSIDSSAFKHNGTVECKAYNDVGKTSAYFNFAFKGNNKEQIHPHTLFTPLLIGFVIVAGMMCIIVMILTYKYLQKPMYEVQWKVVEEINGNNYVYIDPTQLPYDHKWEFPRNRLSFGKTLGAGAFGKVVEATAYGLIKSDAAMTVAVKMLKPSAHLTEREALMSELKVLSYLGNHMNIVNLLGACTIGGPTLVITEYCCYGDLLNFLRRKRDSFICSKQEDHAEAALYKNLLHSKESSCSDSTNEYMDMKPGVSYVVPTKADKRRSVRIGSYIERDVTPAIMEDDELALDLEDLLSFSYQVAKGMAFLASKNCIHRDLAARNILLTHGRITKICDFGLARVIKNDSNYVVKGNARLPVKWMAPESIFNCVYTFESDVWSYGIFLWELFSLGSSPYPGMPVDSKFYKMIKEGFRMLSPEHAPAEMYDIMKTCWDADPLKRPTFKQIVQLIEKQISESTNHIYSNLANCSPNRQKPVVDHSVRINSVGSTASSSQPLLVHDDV
# REPORTED CONDITIONS: at 1 µM
Field: inhibition. Provide a value for each of the compounds that follow.
Give just the numeric value; % need not be written.

Request: Given the compound COc1cccc(/C=N/Nc2ncnc3c2cnn3-c2cccc(OC)c2)c1 , what is its reported inhibition?
Result: 4.96

Request: Given the compound C[C@@H](Oc1cc(-n2cnc3ccc(OC4CCN(C)CC4)cc32)sc1C(N)=O)c1ccccc1Cl , what is its reported inhibition?
Result: 6.14

Request: Given the compound C/C(Nc1ccc(S(N)(=O)=O)cc1)=C1/C(=O)Nc2ccccc21 , what is its reported inhibition?
Result: -1.16

Request: Given the compound O=C(Nc1n[nH]c2cc(-c3cc(F)ccc3F)ccc12)C1CC1 , what is its reported inhibition?
Result: 3.88

Request: Given the compound NS(=O)(=O)c1ccc(N/N=C2\C(=O)Nc3ccc(-c4cnco4)cc32)cc1 , what is its reported inhibition?
Result: 5.47

Request: Given the compound NC(=O)c1cc(-c2ccc(F)cc2)cc(-c2ccncc2)c1N , what is its reported inhibition?
Result: 4.8

Request: Given the compound COc1cc2ncn(-c3cc(OCCc4ccccc4)c(C(N)=O)s3)c2cc1OC , what is its reported inhibition?
Result: -0.63

Request: Given the compound COc1ccc2cc(-c3c(-c4ccncc4)nc(-c4ccc(S(C)(=O)=O)cc4C)n3C)ccc2c1 , what is its reported inhibition?
Result: 4.38

Request: Given the compound CN(C)CCCNc1nccc(-c2c(-c3ccc(F)cc3)nn3cc(C(F)(F)F)ccc23)n1 , what is its reported inhibition?
Result: -0.31

Request: Given the compound CCc1cccc(CC)c1/C=C/c1cncc(C(=O)NC)c1 , what is its reported inhibition?
Result: 0.24
